Where do the numbers come from? From patent US11377444B2.

- procedure_text: Pharmacokinetic evaluation in plasma after IV and PO administration
- Assay type: in vivo
- test_conditions: mouse, female Balb/c mice, IV 2 mg/kg
reported_metric: AUC(0-inf) (µM·h)

Solved cases below.
Look at this compound and give its reported AUC(0-inf). CNC(=O)c1cccc(-c2ccc3c(N4CCOC[C@@H]4C)nc(N4CCOC5(CC5)C4)nc3n2)c1 [Embodiment 1] 7.42

Look at this compound and give its reported AUC(0-inf). CNC(=O)c1cccc(-c2ccc3c(N4CCOC[C@@H]4C)nc(N4CCOC[C@@H]4C)nc3n2)c1 [AZD2014, reference compound] 8.91

P. C[C@H]1COCCN1c1nc(N2CCOC3(CC3)C2)nc2nc(-c3cccc(C(N)=O)c3)ccc12 [Embodiment 51]
Q. CNC(=O)c1cccc(-c2ccc3c(N4CCOC[C@@H]4C)nc(N4CCOC5(CCC5)C4)nc3n2)c1 [Embodiment 23]
Sorting ascending by AUC(0-inf), which comes first: P or Q ? Answer by quoting the chosen item's label. P

----------
- measurement_target: mTOR kinase (mTORC1 and mTORC2 kinase complex) (Homo sapiens, UniProt P42345)
- procedure_text: In vitro evaluation of mTOR kinase inhibitory activity (DiscoverX ligand-bead competition binding, qPCR readout)
reported_metric: Kd (pM)

I. CNC(=O)c1cccc(-c2ccc3c(N4CCOCC4C)nc(N4CCOC5(CCS(=O)(=O)C5)C4)nc3n2)c1 (single isomer, unassigned) [Embodiment 47-2]
II. CC1COCCN1c1nc(N2CCOC3(CCOC3)C2)nc2nc(-c3cccc(C(N)=O)c3)ccc12 (single isomer, unassigned) [Embodiment 50-2]
Sorting ascending by Kd, which comes first: I or II ? Answer by quoting the chosen item's label. II

----------
- procedure_text: Pharmacokinetic evaluation in plasma after IV and PO administration
- Format: in vivo
- test_conditions: female Balb/c mice, IV 2 mg/kg
reported_metric: AUCExtra (%)

Look at this compound and give its reported AUCExtra. `CNC(=O)c1cccc(-c2ccc3c(N4CCOC[C@@H]4C)nc(N4CCOC5(CCC5)C4)nc3n2)c1` 0.0592

1. CNC(=O)c1cccc(-c2ccc3c(N4CCOC[C@@H]4C)nc(N4CCOC5(CC5)C4)nc3n2)c1
2. C[C@H]1COCCN1c1nc(N2CCOC3(CC3)C2)nc2nc(-c3cccc(C(N)=O)c3)ccc12
3. CNC(=O)c1cccc(-c2ccc3c(N4CCOC[C@@H]4C)nc(N4CCOC[C@@H]4C)nc3n2)c1 [AZD2014, reference compound]
# rank_down: sort by AUCExtra, max first // format: requested-order list of labels 3, 1, 2
(3: 0.384%, 1: 0.124%, 2: 0.0469%)

----------
- procedure_text: Pharmacokinetic evaluation in plasma after IV and PO administration
- Assay type: in vivo
- test_conditions: mouse, female Balb/c mice, PO 2 mg/kg
reported_metric: Cmax (µM)

Look at this compound and give its reported Cmax. C[C@H]1COC2(CCC2)CN1c1nc(N2CCOC[C@@H]2C)c2ccc(-c3cccc(C(N)=O)c3)nc2n1 [Embodiment 35] 3.49

a. CNC(=O)c1cc(-c2ccc3c(N4CCOC[C@@H]4C)nc(N4CCOC5(CC5)C4)nc3n2)ccc1OC [Embodiment 55]
b. CNC(=O)c1cccc(-c2ccc3c(N4CCOC[C@@H]4C)nc(N4CCOC[C@@H]4C)nc3n2)c1 [AZD2014, reference compound]
Short answer wanted: higher Cmax, a or b ? Answer by quoting the chosen item's label. a
(a: 7.73 µM, b: 4.37 µM)
